# system.name: human collagen type I, acid soluble, extracted from placenta (Sigma C7774) (human) (UniProt P02452)
# Sequence (P02452 162-1218 limits assumed, chain 1 of 2): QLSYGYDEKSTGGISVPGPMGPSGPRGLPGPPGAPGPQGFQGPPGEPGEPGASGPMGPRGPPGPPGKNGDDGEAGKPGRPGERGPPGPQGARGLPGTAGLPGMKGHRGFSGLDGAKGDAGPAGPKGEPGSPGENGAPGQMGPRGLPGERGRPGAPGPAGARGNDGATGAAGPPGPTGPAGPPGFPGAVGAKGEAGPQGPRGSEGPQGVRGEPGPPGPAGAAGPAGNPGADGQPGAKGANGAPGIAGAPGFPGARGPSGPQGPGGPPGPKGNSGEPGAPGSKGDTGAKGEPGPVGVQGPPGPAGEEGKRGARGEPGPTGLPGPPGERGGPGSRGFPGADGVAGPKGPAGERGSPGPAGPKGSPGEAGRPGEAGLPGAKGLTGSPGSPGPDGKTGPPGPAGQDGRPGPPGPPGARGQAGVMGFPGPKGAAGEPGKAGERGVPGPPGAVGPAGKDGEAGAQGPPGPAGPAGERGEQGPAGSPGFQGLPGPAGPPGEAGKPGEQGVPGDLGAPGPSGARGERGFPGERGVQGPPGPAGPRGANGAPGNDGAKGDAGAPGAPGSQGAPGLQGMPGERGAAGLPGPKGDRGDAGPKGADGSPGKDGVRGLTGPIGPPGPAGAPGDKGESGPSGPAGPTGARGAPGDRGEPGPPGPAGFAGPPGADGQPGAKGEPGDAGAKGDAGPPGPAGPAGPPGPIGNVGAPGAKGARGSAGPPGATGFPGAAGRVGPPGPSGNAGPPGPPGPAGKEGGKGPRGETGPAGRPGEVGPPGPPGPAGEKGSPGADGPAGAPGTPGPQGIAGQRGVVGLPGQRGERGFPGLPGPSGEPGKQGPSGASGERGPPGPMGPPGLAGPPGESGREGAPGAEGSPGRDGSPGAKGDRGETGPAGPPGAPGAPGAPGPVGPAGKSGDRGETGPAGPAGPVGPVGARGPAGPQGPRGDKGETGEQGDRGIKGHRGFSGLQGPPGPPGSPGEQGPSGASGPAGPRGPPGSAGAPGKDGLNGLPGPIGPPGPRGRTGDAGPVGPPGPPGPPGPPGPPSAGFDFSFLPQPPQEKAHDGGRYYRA
# Sequence (P08123 80-1119 limits assumed, chain 2 of 2, further chain): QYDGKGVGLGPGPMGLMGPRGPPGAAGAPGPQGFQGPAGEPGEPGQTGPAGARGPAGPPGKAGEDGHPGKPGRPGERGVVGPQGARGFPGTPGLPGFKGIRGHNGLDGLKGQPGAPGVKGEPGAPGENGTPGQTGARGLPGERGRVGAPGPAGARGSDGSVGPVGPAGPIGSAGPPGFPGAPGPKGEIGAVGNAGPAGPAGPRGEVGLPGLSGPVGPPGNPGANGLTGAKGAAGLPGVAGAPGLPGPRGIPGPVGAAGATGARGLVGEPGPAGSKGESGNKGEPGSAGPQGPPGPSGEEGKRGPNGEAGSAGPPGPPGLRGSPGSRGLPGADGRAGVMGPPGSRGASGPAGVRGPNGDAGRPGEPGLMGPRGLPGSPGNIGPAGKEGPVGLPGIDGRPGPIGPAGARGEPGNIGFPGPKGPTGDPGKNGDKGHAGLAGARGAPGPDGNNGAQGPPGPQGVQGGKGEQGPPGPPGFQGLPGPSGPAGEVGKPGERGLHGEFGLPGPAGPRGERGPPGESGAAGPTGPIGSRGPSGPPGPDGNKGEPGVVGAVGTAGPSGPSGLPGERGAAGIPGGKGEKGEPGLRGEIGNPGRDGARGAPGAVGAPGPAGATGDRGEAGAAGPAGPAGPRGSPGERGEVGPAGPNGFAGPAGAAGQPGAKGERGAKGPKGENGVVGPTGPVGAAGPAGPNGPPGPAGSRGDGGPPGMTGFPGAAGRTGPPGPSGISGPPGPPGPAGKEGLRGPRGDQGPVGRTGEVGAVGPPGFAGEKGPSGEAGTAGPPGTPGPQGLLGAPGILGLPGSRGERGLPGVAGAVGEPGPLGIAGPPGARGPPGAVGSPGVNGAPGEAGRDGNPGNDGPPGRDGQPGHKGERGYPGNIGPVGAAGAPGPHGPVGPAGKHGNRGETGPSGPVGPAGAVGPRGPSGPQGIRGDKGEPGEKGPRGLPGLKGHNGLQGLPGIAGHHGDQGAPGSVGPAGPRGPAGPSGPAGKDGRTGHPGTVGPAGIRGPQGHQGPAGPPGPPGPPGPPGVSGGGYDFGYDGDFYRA
# assay: dried collagen assay
Bridge positions count the residues as written; N and C are the ends. Square brackets hold non-standard residues; d marks the D form. Primed or numbered codes have the meaning given here. Ends that are not written are not given here. * marks the point of attachment. GdDTPA‑thiourea = GdT is GdDTPA-thiourea (Gd-DTPA chelate attached through a thiourea); Tyr(3-Cl) = N[C@@H](Cc1ccc(O)c(Cl)c1)C(=O)O; Gd^T″ = GdDTPA-thiourea; Cbz = O=C(OCc1ccccc1)*; Dap = NC[C@H](N)C(=O)O
For each of the binders below, state its % bound.
The reply should contain only the number, in %.

Exercise: What value of % bound has been recorded for this entry: GWTCSQPGANVWNCTMQ (disulfide 4-14 (inferred)) [SEQ ID NO 85]
Solution: 3

Exercise: Given the binder Cbz-GQWHCT[Dap](GdDTPA‑thiourea)RFPHHYCLYG (disulfide 5-14 (inferred); also: gadolinium complex (GdDTPA)) [Compound ID 939] , what is its reported % bound?
Solution: 4

Exercise: Dear colleague, I am looking for the recorded % bound of the following binder: HWSCDLAMDNEWFCSTK (disulfide 4-14 (inferred)) [SEQ ID NO 84]
Solution: 3

Exercise: Bench note: what % bound did YHACYQAGCWAW (disulfide 4-9 (inferred)) [SEQ ID NO 137] show?
Solution: 4

Exercise: Reported % bound for {Gd^T″}-GQWHCTTD[Tyr(3-Cl)]PHHYCLYG (disulfide 5-14 (inferred); not fully specified (C-terminus)) [Compound ID 895] : what is it?
Solution: 7
